test system: SF-268 CNS; assay: NCI tumour cell line growth inhibition, 48 h
Where a SMILES comes first, the peptide text is derived from it. [ ]: non-standard residue; d: D form.
I'd be grateful if you could share measured TGI for these entries.

Prompt: Give the measured TGI of CN(C)CCOc1ccc2c(c1)C(=O)/C(=C\c1ncc([N+](=O)[O-])n1C)C2 .
Completion: 3.11 µM

Prompt: Give the measured TGI of CCCCCCCCCCCCCCCCCCNc1nc(=O)n(C2CC(OP(=O)(O)OCC3OC(n4cc(F)c(=O)[nH]c4=O)CC3O)C(CO)O2)cc1F (stereo not drawn) .
Completion: 37.1 µM

Prompt: Give the measured TGI of Nc1ccc(C(=O)O)cc1 .
Completion: > 100 µM

Prompt: Give the measured TGI of CCCCCCCCc1cc(O)ccc1O .
Completion: 31.3 µM

Prompt: Give the measured TGI of c1ccc(-c2cc3n4c(-c5ccccc5)nn(-c5ccccc5)c4cnc-3n2)cc1 .
Completion: > 50 µM

Prompt: Give the measured TGI of NC1=Nc2ccccc2Sc2ccccc21 .
Completion: > 100 µM

Prompt: Give the measured TGI of Cc1ccc([N+]2=NC(c3ccccc3)=NN(c3ccccc3)C2)cc1 .
Completion: > 100 µM

Prompt: Give the measured TGI of CCSc1nc(N)c2cnn(CC)c2n1 .
Completion: 66.7 µM

Prompt: Give the measured TGI of C[C@@H](C[C@H](CCO)c1ccccc1)c1ccc2ccccc2c1 .
Completion: 3.09 µM

Prompt: Give the measured TGI of NNS(=O)(=O)c1ccc(/C=C2\NC(=O)NC2=O)cc1 .
Completion: > 100 µM

Prompt: Give the measured TGI of Cn1cccc1-c1cc(-c2ccccc2)nc(N)c1C#N .
Completion: > 100 µM

Prompt: Give the measured TGI of C1CC[N-]CC1.CC(=N\O)/C(C)=N/O.CC(=N\O)/C(C)=N/O.C[CH-]C(C)O.[Co+2] .
Completion: 95 µM

Prompt: Give the measured TGI of CC(C)c1cc(C(C)C)c(B(c2ccccc2)c2ccccc2)c(C(C)C)c1B(c1ccccc1)c1ccccc1 .
Completion: > 100 µM

Prompt: Give the measured TGI of COc1ccc(F)cc1-c1ccnc2[nH]c(C3=CCN(C4CCC(CC(=O)O)CC4)CC3)cc12 (stereo not drawn) .
Completion: 17.7 µM

Prompt: Give the measured TGI of CCOc1ccccc1NC(=O)C1=C(C)NC(C)=C(C(=O)Nc2ccccc2OCC)C1c1cccc([N+](=O)[O-])c1 .
Completion: > 100 µM

Prompt: Give the measured TGI of CCCCOc1ccc(S(=O)(=O)/N=C(\NO)Nc2ccc(Cl)cc2)cc1 .
Completion: 33.3 µM

Prompt: Give the measured TGI of Cn1cc(-c2csc(-c3cn(C(=O)OC(C)(C)C)c4ccccc34)n2)c2cccnc21 .
Completion: 35.3 µM

Prompt: Give the measured TGI of Cc1ccc2c(=O)cc(-c3cccc(F)c3)[nH]c2n1 .
Completion: > 100 µM

Prompt: Give the measured TGI of CC1OC(=O)N2CCC=CC12 (stereo not drawn) .
Completion: > 100 µM

Prompt: Give the measured TGI of CCOC(=O)C1CCCN1C(=O)c1ccccc1Cl (stereo not drawn) .
Completion: > 100 µM

Prompt: Give the measured TGI of Clc1ncnc2c1nc(C#Cc1ccccc1)n2C1CCCCO1 (stereo not drawn) .
Completion: 6.22 µM

Prompt: Give the measured TGI of CCCCCCCCCCOc1ccc(N=Nc2nnc(-c3ccc(OCCCCC)cc3)s2)cc1 .
Completion: > 100 µM

Prompt: Give the measured TGI of CC(C)=CCC[C@@H](C)C1=C(O)C(Nc2ccccc2)=C(C)C(=O)C1=O .
Completion: > 100 µM

Prompt: Give the measured TGI of CC(CC(=O)Nc1ccc(NC(=O)CC(C)N=NC(N)=O)cc1)N=NC(N)=O (stereo not drawn) .
Completion: > 100 µM

Prompt: Give the measured TGI of Cc1c(C2CCSc3ccccc3N2)sc2ccccc12 (stereo not drawn) .
Completion: > 100 µM

Prompt: Give the measured TGI of Cc1nccn1S(=O)(=O)c1ccc(Cl)cc1 .
Completion: > 100 µM

Prompt: Give the measured TGI of CSc1nc(-c2ccccc2)nc(=[N+]2CCOCC2)s1 .
Completion: > 100 µM

Prompt: Give the measured TGI of O=C(N/N=C/c1ccc(N(CCCl)CCCl)cc1)c1ccc(C(=O)N/N=C/c2ccc(N(CCCl)CCCl)cc2)cc1 .
Completion: 27.8 µM

Prompt: Give the measured TGI of Nc1ccn(C2CC3OCC3O2)c(=O)n1 (stereo not drawn) .
Completion: > 100 µM

Prompt: Give the measured TGI of CC(C)(C)CC(C)(C)NCC(O)COc1ccc(C(C)(C)c2ccc(OCC(O)CNC(C)(C)CC(C)(C)C)cc2)cc1 (stereo not drawn) .
Completion: 3.06 µM

Prompt: Give the measured TGI of O=C(O)C1CSC2(CCCN(Cc3ccccc3)C2)N1 (stereo not drawn) .
Completion: > 100 µM

Prompt: Give the measured TGI of Cc1cc(OCC(O)CO)ccc1Cl (stereo not drawn) .
Completion: > 100 µM

Prompt: Give the measured TGI of CC1=CC(=O)N2C(OC[C@@H]2c2ccccc2)O1 (stereo partly drawn) .
Completion: > 100 µM

Prompt: Give the measured TGI of CN1CCN(c2nc3cc(F)ccc3n3cccc23)CC1 .
Completion: > 100 µM

Prompt: Give the measured TGI of CC1=C2C3OC(=O)C(C)C3C(O)C[C@@]2(C)C(=O)CC1 (stereo partly drawn) .
Completion: > 100 µM

Prompt: Give the measured TGI of CC1C(c2ccccc2)NC(c2ccccc2)CC1(N)C#N (stereo not drawn) .
Completion: > 100 µM

Prompt: Give the measured TGI of CSCC[C@H](NC(=O)[C@@H](N)CC(N)=O)C(=O)N[C@@H](Cc1c[nH]c2ccccc12)C(=O)N[C@@H](CCC(N)=O)C(=O)N[C@@H](CCC(=O)O)C(=O)N[C@H](C(=O)NCC(=O)N[C@@H](CCCCN)C(=O)N[C@H](C)C(=O)O)C(C)C (H-NMWQEVGK[dA]-OH) .
Completion: > 100 µM

Prompt: Give the measured TGI of NC(=O)c1nc(-c2ccc(Cl)c(Cl)c2)nc2ccccc12 .
Completion: > 100 µM

Prompt: Give the measured TGI of O=S(=O)(Nc1ccc(Cl)c(Cl)c1)c1ccc(-c2cnc(C3CC3)o2)cc1 .
Completion: 23.8 µM

Prompt: Give the measured TGI of N=C1C=C(N)C(=O)c2ccccc21 .
Completion: 0.451 µM

Prompt: Give the measured TGI of COC(=N)CCCl .
Completion: > 100 µM

Prompt: Give the measured TGI of O=C(O)c1cccc(S(=O)(=O)NN2C(=O)CSC2c2c(O)ccc3ccccc23)c1 (stereo not drawn) .
Completion: 91.5 µM

Prompt: Give the measured TGI of CS(=O)(=O)CCNCc1ccoc1-c1ccc2ncnc(Nc3ccc(OCc4ccccc4)cc3)c2c1 .
Completion: > 25 µM

Measured values drawn from PubChem BioAssay (NCI) for this set.
